biological target: human GPR84 receptor (Homo sapiens); construct: frozen aliquots prepared by acCELLerate; assay: cAMP HTRF assay for identification of cellular GPR84 antagonists; conditions: CHO-K1 cells stably expressing human GPR84; Forskolin + agonist 6-OAU (EC80); average or median values
Sequence (Q9NQS5 whole entry): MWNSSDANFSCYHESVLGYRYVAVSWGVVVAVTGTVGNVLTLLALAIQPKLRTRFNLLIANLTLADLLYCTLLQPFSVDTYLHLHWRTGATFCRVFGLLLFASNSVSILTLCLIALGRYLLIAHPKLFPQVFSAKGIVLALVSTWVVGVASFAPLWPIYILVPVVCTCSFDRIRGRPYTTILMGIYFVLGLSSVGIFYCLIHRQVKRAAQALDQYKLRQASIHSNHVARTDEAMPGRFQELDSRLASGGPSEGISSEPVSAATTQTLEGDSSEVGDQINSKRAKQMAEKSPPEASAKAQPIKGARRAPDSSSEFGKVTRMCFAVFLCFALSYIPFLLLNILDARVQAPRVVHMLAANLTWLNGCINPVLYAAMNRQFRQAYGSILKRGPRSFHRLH
test-readout: pIC50
Just so you know, pIC50 here is -log10 of the concentration in molar units; reply with that number alone.

### Prompt Param item = O=C(NC[C@@H]1COCCO1)c1oc2c(c1C(F)(F)F)-c1nn(Cc3ccncc3)cc1C1(CC1)C2 ; retrieve measured pIC50.
### Response 8.22

### Prompt Bench note: what pIC50 did CC1CCC(CNC(=O)c2oc3c(c2C(F)(F)F)-c2nn(CC4COCCO4)cc2CC3)O1 (single isomer, unassigned) [Example 224-1] show?
### Response 7.80

### Prompt # input compound: Cc1c(C(=O)NC[C@@H]2COCCO2)oc2c1-c1nn(C[C@H]3COCCO3)cc1[C@H](C(F)(F)F)C2 (single isomer, unassigned) [Example 265-2] ; wanted: its pIC50
### Response 5.92
